fold change of Putrescine concentration reference
system: Klebsiella aerogenes DSM 30053; assay: fold change of Putrescine concentration vs plate DMSO controls (fold change (ratio)); higher = more amine produced, active = hit call of the paper (significant change in both replicates, either direction); conditions: incubation time: 27 h, anaerobic, 37 °C
Counter-ions that a name gives are not always drawn.
Give the figure by itself; no unit, no explanation.

Before answering, review these 4 worked examples.
{"compound": "CCC1(C)CC(=O)NC1=O (stereo not given) [Ethosuximide] (20 µM)", "measured": 0.995}
{"compound": "Clc1cc(Cl)c(OCC#CI)cc1Cl [Haloprogin] (20 µM)", "measured": 0.953}
{"compound": "Cc1cc(C(C)(C)C)cc(C)c1CC1=NCCN1 [Xylometazoline hydrochloride] (20 µM)", "measured": 0.966}
{"compound": "CC(C(=O)O)c1ccc2c(c1)[nH]c1ccc(Cl)cc12 (stereo not given) [Carprofen] (20 µM)", "measured": 0.99}

Briefly, fold change of Putrescine concentration measured for Clc1ccc(C(c2ccccc2Cl)C(Cl)Cl)cc1 (stereo not given) [Mitotane] (20 µM) : 1
